# Assay Explanation: Multiple day oral dosing in dogs (exposure, clinical and anatomic pathology)
# Format: in vivo, Beagle dogs
# Test Conditions: beagle, dog, plasma, po, 0.5 mg/kg/day; read-out: Cmax D14, total
Observable: Cmax (nM)
Reply with just the number (in nM).

[in] Given C[C@H](Nc1ccc2c(c1)OCCn1cc(N3C(=O)OC[C@H]3C(F)F)nc1-2)C(N)=O , state its recorded Cmax.
[out] 310

---

# Target Desc: PI3Kδ (Homo sapiens (Human), UniProt O00329)
# Sequence (O00329 whole entry): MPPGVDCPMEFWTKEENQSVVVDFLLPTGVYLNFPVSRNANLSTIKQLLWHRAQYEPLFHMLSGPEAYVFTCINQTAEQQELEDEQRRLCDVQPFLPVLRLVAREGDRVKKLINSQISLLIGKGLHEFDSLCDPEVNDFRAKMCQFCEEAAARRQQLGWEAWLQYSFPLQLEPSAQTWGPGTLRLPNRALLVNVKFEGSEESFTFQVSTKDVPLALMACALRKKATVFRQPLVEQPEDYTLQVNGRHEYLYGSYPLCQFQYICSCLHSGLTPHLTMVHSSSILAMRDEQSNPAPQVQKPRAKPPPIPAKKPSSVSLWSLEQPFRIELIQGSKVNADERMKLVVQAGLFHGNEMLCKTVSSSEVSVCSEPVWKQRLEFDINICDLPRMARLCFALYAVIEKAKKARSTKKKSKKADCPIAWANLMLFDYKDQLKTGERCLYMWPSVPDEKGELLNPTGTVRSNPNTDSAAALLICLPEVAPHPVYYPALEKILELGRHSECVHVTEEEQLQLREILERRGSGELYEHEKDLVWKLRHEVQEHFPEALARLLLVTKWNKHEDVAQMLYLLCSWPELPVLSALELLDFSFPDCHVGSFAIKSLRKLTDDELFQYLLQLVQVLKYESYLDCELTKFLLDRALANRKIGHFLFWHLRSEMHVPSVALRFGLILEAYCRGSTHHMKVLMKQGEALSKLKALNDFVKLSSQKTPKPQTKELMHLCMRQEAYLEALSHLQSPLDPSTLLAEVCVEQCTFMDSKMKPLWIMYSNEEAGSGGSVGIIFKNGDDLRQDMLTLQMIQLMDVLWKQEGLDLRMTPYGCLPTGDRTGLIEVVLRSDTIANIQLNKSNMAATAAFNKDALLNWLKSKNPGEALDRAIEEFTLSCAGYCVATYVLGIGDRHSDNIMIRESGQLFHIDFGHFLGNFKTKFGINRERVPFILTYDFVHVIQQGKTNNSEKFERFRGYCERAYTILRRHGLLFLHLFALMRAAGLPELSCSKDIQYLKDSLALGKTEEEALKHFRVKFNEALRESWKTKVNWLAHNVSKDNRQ
# Sequence (P27986 whole entry partner): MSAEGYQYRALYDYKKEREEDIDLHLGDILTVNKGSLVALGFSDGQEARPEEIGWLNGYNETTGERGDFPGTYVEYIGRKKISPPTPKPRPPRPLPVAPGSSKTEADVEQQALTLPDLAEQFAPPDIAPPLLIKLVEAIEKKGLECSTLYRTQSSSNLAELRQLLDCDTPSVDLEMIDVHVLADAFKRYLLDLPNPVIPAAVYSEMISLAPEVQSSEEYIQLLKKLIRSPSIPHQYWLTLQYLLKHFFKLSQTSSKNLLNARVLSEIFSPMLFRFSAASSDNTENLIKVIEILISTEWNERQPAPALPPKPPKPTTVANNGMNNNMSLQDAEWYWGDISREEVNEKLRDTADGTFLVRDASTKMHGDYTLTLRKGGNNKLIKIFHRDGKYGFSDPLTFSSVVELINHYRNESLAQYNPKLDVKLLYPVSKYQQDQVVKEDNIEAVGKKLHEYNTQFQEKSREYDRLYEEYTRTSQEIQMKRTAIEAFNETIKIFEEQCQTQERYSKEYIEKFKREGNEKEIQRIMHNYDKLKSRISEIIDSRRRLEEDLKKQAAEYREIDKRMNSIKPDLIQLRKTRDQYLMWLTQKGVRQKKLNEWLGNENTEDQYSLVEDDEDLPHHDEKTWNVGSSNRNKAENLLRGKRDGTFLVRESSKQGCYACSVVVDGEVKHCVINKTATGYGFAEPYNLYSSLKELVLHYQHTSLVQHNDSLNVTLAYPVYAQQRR
# Assay Explanation: Biochemical inhibition of PI3K delta (ADP-Glo lipid kinase assay, Example 901)
# Test Conditions: geometric mean of minimum three experiments unless footnoted
pKi: −log10 of the molar value.
The threshold is inclusive: pKi of exactly 8 counts as MET; values below receive NOT MET.

Here are 4 compounds together with their reported answers.
> print(dat)
                                   compound  category
1  CC(C)C(Oc1ccc2c(c1)OCCn1cc(-c3ncnn3CC(F)(F)F)nc1-2)C(N)=O (stereo not shown) [Compound 501, reference compound]   NOT MET
2  C[C@@H]1COC(=O)N1c1cn2c(n1)-c1ccc(N[C@H](C(N)=O)C3CC3)cc1OCC2   NOT MET
3  NC(=O)[C@@H]1CCCN1c1ccc2c(c1)OCCn1cc(-c3ncnn3CC(F)(F)F)nc1-2 [Compound 469, reference compound]       MET
4  CC(C)n1ncnc1-c1cn2c(n1)-c1ccc(N(C)[C@@H](C)C(N)=O)cc1OCC2 [Compound 550, reference compound]       MET

[in] Dear colleague, could you confirm whether CC(C)n1ncnc1-c1cn2c(n1)-c1ccc(N3CCC[C@H]3C(N)=O)cc1OCC2 [Compound 375, reference compound] has pKi at or above 8?
[out] MET

---

# Assay Explanation: Multiple day oral dosing in dogs (exposure, clinical and anatomic pathology)
# Format: in vivo, Beagle dogs
# Test Conditions: Beagle, plasma, oral; dog, alpelisib (BYL-719) 10 mg/kg/day QD, D7; read-out: Cmin D7, total
Observable: concentration at 7 day (nM)
Reply with just the number (in nM).

[in] Given Cc1nc(NC(=O)N2CCC[C@H]2C(N)=O)sc1-c1ccnc(C(C)(C)C(F)(F)F)c1 , state its recorded concentration at 7 day.
[out] 620

---

Listing: Ki of selected molecules
# Target Desc: PI3Kβ (Homo sapiens (Human))
# Sequence (P42338 whole entry, one chain of several): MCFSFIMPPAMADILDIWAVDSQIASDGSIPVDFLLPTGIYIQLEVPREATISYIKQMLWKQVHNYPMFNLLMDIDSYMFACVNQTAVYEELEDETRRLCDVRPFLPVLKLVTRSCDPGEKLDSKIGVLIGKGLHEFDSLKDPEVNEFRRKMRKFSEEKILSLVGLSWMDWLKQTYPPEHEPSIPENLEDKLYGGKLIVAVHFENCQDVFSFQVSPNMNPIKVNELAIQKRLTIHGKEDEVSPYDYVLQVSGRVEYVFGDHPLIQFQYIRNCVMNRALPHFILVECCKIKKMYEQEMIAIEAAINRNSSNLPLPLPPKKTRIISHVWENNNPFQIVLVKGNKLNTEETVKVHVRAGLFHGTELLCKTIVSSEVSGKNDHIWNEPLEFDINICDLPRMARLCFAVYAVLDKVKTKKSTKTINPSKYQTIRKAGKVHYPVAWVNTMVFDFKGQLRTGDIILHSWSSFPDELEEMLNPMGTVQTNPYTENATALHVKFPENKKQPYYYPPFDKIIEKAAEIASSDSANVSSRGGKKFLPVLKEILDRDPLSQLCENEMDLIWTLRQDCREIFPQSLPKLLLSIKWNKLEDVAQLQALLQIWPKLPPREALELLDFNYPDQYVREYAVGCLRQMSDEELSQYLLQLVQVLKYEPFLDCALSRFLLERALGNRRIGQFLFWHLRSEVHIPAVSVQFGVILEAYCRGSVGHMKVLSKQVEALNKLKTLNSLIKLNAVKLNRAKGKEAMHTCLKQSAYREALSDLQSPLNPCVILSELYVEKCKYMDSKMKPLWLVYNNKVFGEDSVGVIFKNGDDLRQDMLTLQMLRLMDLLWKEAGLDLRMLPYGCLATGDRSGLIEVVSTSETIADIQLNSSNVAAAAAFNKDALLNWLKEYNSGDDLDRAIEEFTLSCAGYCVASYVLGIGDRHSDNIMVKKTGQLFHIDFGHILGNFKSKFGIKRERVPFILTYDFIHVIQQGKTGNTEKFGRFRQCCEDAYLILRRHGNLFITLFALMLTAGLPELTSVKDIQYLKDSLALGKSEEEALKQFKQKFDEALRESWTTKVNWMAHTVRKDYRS
Reply with just the number (in nM).

Here's what some known entries look like.
> print(dat)
                            molecule.smiles  endpoint.value
1  CC[C@H](Nc1ccc2c(c1)OCCn1cc(N3C(=O)OC[C@H]3C(F)F)nc1-2)C(N)=O             132
2  C[C@H](Nc1ccc2c(c1)OCCn1cc(N3C(=O)OC[C@H]3C(F)F)nc1-2)C(N)=O            99.7

[in] Form entry - test system: PI3Kβ (Homo sapiens (Human)); read-out: Ki; molecule: C[C@H](Nc1ccc2c(c1)OCCn1cc(N3C(=O)OC[C@H]3CF)nc1-2)C(N)=O
[out] 122

[in] Form entry - test system: PI3Kβ (Homo sapiens (Human)); read-out: Ki; molecule: NC(=O)[C@@H](Nc1ccc2c(c1)OCCn1cc(N3C(=O)OC[C@H]3CF)nc1-2)C1CC1
[out] 341

Cited source for all entries: patent US10112932B2
